Task for the reader: assign each of the following variants its reported reverse-splicing fitness.
B1: Azoarcus group I ribozyme (parent)
chain: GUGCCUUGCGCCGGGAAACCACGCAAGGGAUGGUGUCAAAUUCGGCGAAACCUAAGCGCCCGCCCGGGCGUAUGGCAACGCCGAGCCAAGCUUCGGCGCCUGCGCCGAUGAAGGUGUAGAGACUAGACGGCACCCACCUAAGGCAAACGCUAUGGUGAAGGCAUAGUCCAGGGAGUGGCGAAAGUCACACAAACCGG

variants of: B1; assay: reverse-splicing fitness (ratio to wild type); higher = more active; in vitro selection; Mg2+ level not given
Answers are plain numbers.

Solved entries (count: 5):
[[record]]
mutation_label = "A111G A120U C150U C169A U176C"
measure_name = "reverse-splicing fitness"
measured = 0.00257

[[record]]
mutation_label = "C82A A111G A120C C169G"
measure_name = "reverse-splicing fitness"
measured = 0.00888

[[record]]
mutation_label = "A111U A120G A145G C150A U176A"
measure_name = "reverse-splicing fitness"
measured = 0.0138

[[record]]
mutation_label = "A111G A120C A145G C150A C169U U176C"
measure_name = "reverse-splicing fitness"
measured = 0.0231

[[record]]
mutation_label = "C82G A111C A145C C150A C169G U176G"
measure_name = "reverse-splicing fitness"
measured = 0.00878


The following variants each have a reported value; give each one's reverse-splicing fitness.
1. C82A A111G A120G A145G C169A
2. C82G A111G A120C A145C C150G C169U U176A

# output
1: 0.0101; 2: 0.00714

The following variants each have a reported value; give each one's reverse-splicing fitness.
1. C82A A145C C150G U176G
2. C82G A111C A145C C169G U176A
3. C82U A111C A120C A145U C150G C169U
4. C82U A111G A120C C150G C169G
5. C82U A111C A120U A145C C150A U176C
6. C82U A111U A120G A145C C150U C169G
7. C82G A111U A120G A145G C150U U176A

# output
1: 0.00808; 2: 0.0274; 3: 0.00844; 4: 0.00713; 5: 0.00397; 6: 0.00792; 7: 0.00946

The following variants each have a reported value; give each one's reverse-splicing fitness.
1. C82G A111U A120C A145G C150U C169G U176G
2. A111G C150A C169G U176C
3. C82G A111U A120C A145U C169U
4. C82G A111G A120U A145C C150G U176C
5. C82G A111C A145U C150U C169A U176C
6. C82U A111C A120G A145G C150G C169G U176G

# output
0.00632
0.0218
0.0143
0.00396
0.0132
0.00526

The following variants each have a reported value; give each one's reverse-splicing fitness.
1. C82A A111C A120C A145C C150G
2. C82G A111G A120G A145G C150A C169A U176G
3. A111G A120G A145G C150G C169U
4. C82A A111U U176C
5. A111C A120U A145C C169A U176C

# output
[0.00873, 0.00774, 0.0343, 0.158, 0.00231]

The following variants each have a reported value; give each one's reverse-splicing fitness.
1. C82G A111C A145G C150A C169A U176G
2. C82U A111G A120G A145G C150U C169U U176G
3. C82A A111C A120C A145U C150U
4. C82A A120C C150G C169U U176A
5. C82U A120U A145U C150U C169A U176A
6. C82A A111G A120G A145C C150G C169A
7. C82A A111G A120U A145C C169G U176A
8. A111U A120U A145U C150U U176A

# output
1: 0.0086; 2: 0.00525; 3: 0.0202; 4: 0.00617; 5: 0.00262; 6: 0.00928; 7: 0.00249; 8: 0.16

The following variants each have a reported value; give each one's reverse-splicing fitness.
1. A145G C150G U176A
2. C82G A111G A120U A145G C150A U176A
3. C82U A111U A145G C150U C169A U176G

# output
0.256
0.00897
0.00684

The following variants each have a reported value; give each one's reverse-splicing fitness.
1. A111G A145G C150A C169A U176C
2. C82U A120G A145G C169A U176C
3. A111U A120G A145C C169A U176G
4. A111G A120G A145U C150G C169A
5. C82A A111G A120C A145G C150U C169U

# output
0.0214
0.0335
0.00414
0.0193
0.0147

The following variants each have a reported value; give each one's reverse-splicing fitness.
1. C82G A111C A120U C150G C169G U176G
2. C82A A111C A120U A145G
3. C82A A111U A120U A145C C169A U176C
4. C82G A111C A120G C150A C169G
5. C82A A120U A145U C150U C169A U176C
6. C82G A120U A145U

# output
0.00302
0.023
0.00227
0.00935
0.00272
0.23
